Values from ChEMBL document CHEMBL5375992

Consider the following compounds; for each one, report its Activity.
target: Cereblon/Ikaros (Homo sapiens) (UniProt Q96SW2+Q13422); assay: Protac activity at CRBN/IKZF1 (unknown origin) transfected in HEK293T cells at 100 nM incubated for 24 hrs by flow cytometry analysis relative to control; format: cell-based
Kindly format the answer as number then unit.

Measured Activity of O=C(/C=C/c1ccccc1)Nc1ccc2c(c1)CN(C1CCC(=O)NC1=O)C2=O (stereo not given) : 13%

Measured Activity of O=C1CCC(N2Cc3cc(NC(=O)c4ccc5ncsc5c4)ccc3C2=O)C(=O)N1 (stereo not given) : 3%

Measured Activity of Cc1ccc2c(c1)OCC(C(=O)Nc1ccc3c(c1)CN(C1CCC(=O)NC1=O)C3=O)=C2 (stereo not given) : 9%

Measured Activity of O=C1CCC(N2Cc3cc(NC(=O)c4cccc(Oc5ccccc5)c4)ccc3C2=O)C(=O)N1 (stereo not given) : 62%

Measured Activity of COc1cccc2c1C=C(C(=O)Nc1ccc3c(c1)CN(C1CCC(=O)NC1=O)C3=O)CO2 (stereo not given) : 39%
